Ref: patent US20250163057A1

system: DCN1 (DCUND1) protein PONY domain (Homo sapiens (Human), UniProt Q96GG9)
Sequence (Q96GG9 60-248): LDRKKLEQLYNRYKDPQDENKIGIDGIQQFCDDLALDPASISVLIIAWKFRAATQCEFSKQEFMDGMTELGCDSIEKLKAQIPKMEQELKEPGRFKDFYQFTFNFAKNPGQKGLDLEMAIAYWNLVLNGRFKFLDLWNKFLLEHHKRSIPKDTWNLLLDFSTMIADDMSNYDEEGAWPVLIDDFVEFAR
protocol_summary: TR-FRET assay, DCN1 binding with FAM-labeled probe
run_parameters: TR FRET IC50 1 hr (nM), 1 hr after treatment with compound
Measured IC50 values are reported for all entries that follow.

{"columns": ["compound", "IC50"],
 "data": [
  ["CCN1C(=O)[C@@H](NC(=O)c2cccc(C(F)(F)F)c2)[C@@H](c2ccc(F)cc2)c2c(C/C=C/C(N)=O)nn(-c3ccccc3)c21 (racemic) [Compound I-46]", "1000 to 3000 nM"],
  ["CCN1C(=O)[C@@H](NC(=O)c2cccc(C(F)(F)F)c2)[C@@H](C2CC2)c2c(C(=O)N3CCN(C)C[C@H]3C#N)nn(C3CCOCC3)c21 (single isomer, unassigned) [Compound I-430]", "200 to 1000 nM"],
  ["CCN1C(=O)[C@@H](NC(=O)c2nccc(C(F)(F)F)n2)[C@H](c2ccc(F)cc2)c2c(CN(C)C(=O)CC#N)nn(-c3ccccc3)c21 [Compound I-402]", "1000 to 3000 nM"],
  ["CCN1C(=O)[C@@H](NC(=O)COc2ccccc2)[C@@H](C2CC2)c2c(C(=O)N3[C@H](C#N)C[C@H]4C[C@H]43)nn(C3CCOCC3)c21 [Compound I-628]", "1000 to 3000 nM"],
  ["CCN1C(=O)[C@@H](NC(=O)c2cc(S(C)(=O)=O)ccc2F)[C@@H](C2CC2)c2c(C(=O)N3[C@H](C#N)C[C@H]4C[C@H]43)nn(C3CCOCC3)c21 [Compound I-475]", "1000 to 3000 nM"],
  ["CCN1C(=O)[C@@H](NC(=O)c2cccc(C(F)(F)F)c2)[C@@H](c2ccc(F)cc2)c2c(CN(C)C(=O)/C=C/CN(C)C)nn(-c3ccccc3)c21 [Compound I-117]", "200 to 1000 nM"]
]}

---

Test system: Cullin-3 (CUL3) neddylation
protocol_summary: AlphaLISA assay for Cullin-3 (CUL3) neddylation in TF 1 cells
Type: cell-based
run_parameters: Homo sapiens, TF-1, 3 h, 3 hours treatment
Measured IC50 values are reported for all entries that follow.

{"columns": ["molecule", "IC50"],
 "data": [
  ["N#C[C@@H]1C[C@H]2C[C@H]2N1C(=O)c1nn(C2CCOCC2)c2c1[C@H](C1CC1)[C@H](NC(=O)c1cccc(C(F)(F)F)c1)C(=O)N2 (mixture of isomers)", "≤ 100 nM"],
  ["CCN1C(=O)[C@H](NC(=O)c2cccc(C(F)(F)F)c2)[C@H](c2ccc(F)cc2)c2c(C(=O)N3CCC[C@H]3C#N)nn(-c3ccccc3)c21", "> 1000 nM"],
  ["C=C(CN(C)C)C(=O)NCc1nn(-c2ccccc2)c2c1[C@H](c1ccc(F)cc1)[C@H](NC(=O)c1cccc(C(F)(F)F)c1)C(=O)N2CC (racemic)", "≤ 100 nM"],
  ["CCN1C(=O)[C@@H](NC(=O)c2cccc(C(F)(F)F)c2)[C@@H](C2CC2)c2c(C(=O)N3CCNC[C@@H]3C#N)nn(-c3ccccc3)c21 (single isomer, unassigned)", "≤ 100 nM"]
]}

---

system: DCN1 (DCUND1) protein PONY domain (Homo sapiens (Human), UniProt Q96GG9)
protocol_summary: Off-rate measurement of reversible covalent molecules (jump dilution TR-FRET with Cy5 probe)
Format: binding
run_parameters: binding mode category from off-rate assay

{"columns": ["molecule_smiles", "Category"],
 "data": [
  ["CCN1C(=O)[C@@H](NC(=O)c2cccc(C(F)(F)F)c2)[C@@H](c2ccc(F)cc2)c2c(C(=O)N3CC[C@H]3C#N)nn(C3CCOCC3)c21", "reversible covalent"],
  ["CCN1C(=O)[C@@H](NC(=O)c2cccc(C(F)(F)F)c2)[C@@H](C)c2c(C(=O)N3[C@H](C#N)C[C@H]4C[C@H]43)nn(C3CCOCC3)c21", "reversible covalent"]
]}
